species on record: Rattus norvegicus; assay: Open TG-GATES - Regimen: Single; type: toxicity, organism-based, Sprague-Dawley; parameters: regimen Single, gender Male, age 6 weeks; settings: in vivo, po, 0 mg/kg, 3 h, tissue Blood, route gavage, dose level Control
MEASURED_PROPERTY: RBC (x10_4/ul)
Numbers only, in x10_4/ul.

Worked examples, 3 molecules total:
The molecule Cc1cccc(Nc2cc(Cl)nc(SCC(=O)O)n2)c1C showed RBC equal to 636.6

So, C=CCO ? Its RBC was 645

// RBC lookup, molecule = Cc1cnc(NC(=O)C2=C(O)c3ccccc3S(=O)(=O)N2C)s1 , result: 633.2

Take each entry in turn and give its RBC.
1. COc1ccc(O)c(C(C)(C)C)c1.COc1ccc(O)cc1C(C)(C)C [BUTYLATED HYDROXYANISOLE]
2. O=C1CN(/N=C/c2ccc(-c3ccc([N+](=O)[O-])cc3)o2)C(O)=N1

output:
1. 616.8
2. 586.4

Recorded values, source ChEMBL document CHEMBL3885861.
